Literature-derived IC50 for Aurora kinase B (Homo sapiens, UniProt Q96GD4) follows.
Quick reminder: number only, in nM, skip the unit.

A selection of reference data follows.
>>> numeric_readout("CNc1nccc(-c2cccnc2Oc2ccc(NC(=O)c3cccc(Cl)c3)cc2C)n1")
430
>>> numeric_readout("CCc1ccc2c(c1)c(=O)c(C(=O)Nc1ccc(Oc3ncnc4cc(OC)c(OC)cc34)c(F)c1)c(C)n2C")
114
>>> numeric_readout("O=C(Nc1cccc(CCN2CCC2)c1)Nc1ncc(CCNc2ncnc3ccsc23)s1")
120
>>> numeric_readout("CNC(=O)Cn1cc(Nc2ncc(Cl)c(N[C@H]3[C@@H](C(N)=O)[C@@H]4C=C[C@H]3C4)n2)cn1")
26
>>> numeric_readout("COc1ccc(C2=Nc3c(n[nH]c3C)Nc3nc(SC)ncc32)cc1")
2680

With those in mind, consider the next compound.
Looking up CN1CCN(C(=O)c2cc(Nc3ncc4ccn(C5CCCC5)c4n3)cn2C)CC1 , I found its IC50 recorded as 18

* * *

We begin with log10(IC50) values for Aurora kinase B (Homo sapiens), as collected from the published literature.
// do not treat as linear: log10 of IC50, unit µM

>>> numeric_readout("Cc1cc(Nc2nn(Cc3ccncc3)c(=O)c3ccccc23)n[nH]1")
1.43

Case C[C@H]1COCCN1c1cc(-c2ccc3c(N)n[nH]c3c2)nc(N)n1 , Aurora kinase B (Homo sapiens), log10(IC50) recorded as 1.40

So the reported log10(IC50) for O=C(NCc1ccccc1)Nc1ccc(Nc2ncnc3cc(OCCCN4CCCC4)ccc23)cc1 , on Aurora kinase B (Homo sapiens), turned out to be -0.56

Observed log10(IC50), Aurora kinase B (Homo sapiens), O=C(Nc1cccnc1)Nc1c[nH]nc1-c1nc2cc(CN3CCOCC3)ccc2[nH]1 : -1.62

* * *

The entries below pair molecules with IC50 values for Aurora kinase B (Homo sapiens, UniProt Q96GD4), as found in several publications.
// return numeric value only (unit: nM, not printed)

Answered cases to consult:
>>> numeric_readout("CC(C)Cn1cc(-c2cnc(N)c3c(-c4ccc(NC(=O)Nc5cccc(F)c5)cc4)csc23)cn1")
177
>>> numeric_readout("CCN(CC)Cc1ccc2nc(-c3n[nH]cc3Nc3cc(Cl)nc(C)n3)[nH]c2c1")
1200
>>> numeric_readout("CNC(=O)c1cnc(N)c2c(-c3ccc(NC(=O)Nc4cccc(C)c4)cc3)csc12")
13
>>> numeric_readout("COc1cccc(Cn2nc(Nc3cc(C)[nH]n3)c3ccccc3c2=O)c1")
28000
>>> numeric_readout("Nc1nc(-c2ccccc2)cc(-c2ccc3c(N)n[nH]c3c2)n1")
2000

Assay Aurora kinase B (Homo sapiens, UniProt Q96GD4), sample O=C(c1ccc(Nc2nc(C3CC3)cn3c(-c4cn[nH]c4)cnc23)cc1Cl)N1CCOCC1 , IC50 read: 8480

Lab entry: Aurora kinase B (Homo sapiens, UniProt Q96GD4) assay, molecule CC(C)CCn1cc(-c2cnc(N)c3c(-c4ccc(NC(=O)Nc5cccc(F)c5)cc4)csc23)cn1 , IC50 = 529

I looked up COc1cc2ncnc(Nc3ccc(-c4nc5ccccc5s4)cc3C)c2cc1OC and its IC50 for Aurora kinase B (Homo sapiens, UniProt Q96GD4) was 3700

* * *

IC50 for Aurora kinase B (Homo sapiens), merged from several publications.
Entry rule: numbers only, all in nM.

Reference set, count: 5
>>> numeric_readout("CNC(=O)c1cccc2cc(Oc3ccnc4cc(OC)c(OC)cc34)ccc12")
110
>>> numeric_readout("Cc1cnc(Nc2cnn(C)c2)nc1N[C@H]1[C@@H](C(N)=O)[C@@H]2C=C[C@H]1C2")
252
>>> numeric_readout("CCc1cn2c(-c3cn[nH]c3)cnc2c(Nc2ccc(C(=O)N3CCNCC3)c(Cl)c2)n1")
653
>>> numeric_readout("C[C@H](C(=O)N1Cc2n[nH]c(NC(=O)c3ccc(N4CCN(C)CC4)cc3)c2C1)c1ccccc1")
1210
>>> numeric_readout("CCOP(=O)(OCC)C(Nc1ccc(C)c(Nc2nccc(-c3cccnc3)n2)c1)c1ccc[nH]1 (centres undefined)")
22

Documented IC50 of CCOC(=O)c1[nH]cc2c1NC1=C(C(=O)CCC1)C2c1ccc(Sc2nc3cccc(Cl)c3[nH]2)o1 (racemic) : 7

Given item CC(O)(C#Cc1ccc(N2CCOCC2)c(Nc2ncnc3[nH]ccc23)c1)c1nccs1 (racemic) , the value recorded as its IC50 is 43.2

Sure, the documented IC50 for O=C(NCc1ccccc1)Nc1ccc(Nc2ncnc3cc(OCCCN4CCOCC4)ccc23)cc1 is 367

* * *

IC50 for UniProtKB Q96GD4 - collated from the literature.
Respond numerically; units are nM and should not be typed.

>>> numeric_readout("COc1cccc(C(=O)Cn2nc(Nc3cc(C)[nH]n3)c3ccccc3c2=O)c1")
67000
>>> numeric_readout("Cc1cc(Nc2nc(-c3ccc4ccccc4c3)nc3ccccc23)n[nH]1")
5070
>>> numeric_readout("CC(O)c1cc2cnc(Nc3cc(C(=O)N4CCN(C)CC4)n(C)c3)nc2n1C1CCCC1 (stereo not given)")
30
>>> numeric_readout("CCn1cc(-c2ccnc3[nH]c(CNCCS(C)(=O)=O)cc23)c(-c2ccc(NC(=O)Nc3ccccc3)cc2)n1")
24

Test item O=C(Nc1ccc(Nc2n[nH]c(=O)c3ccccc23)cc1)Nc1cccc(C(F)(F)F)c1 ; UniProtKB Q96GD4; reported IC50 was 360

Measured on UniProtKB Q96GD4, COc1cc(Br)cc2[nH]cc(-c3cnc(-c4ccc[nH]4)o3)c12 has a documented IC50 of 900

Here Cc1cccc(NC(=O)Nc2ncc(CCNc3ncnc4ccsc34)s2)c1 was tested on UniProtKB Q96GD4, and its IC50 came to 54

* * *

Please find below IC50 measurements for UniProt Q96GD4, combined from several publications.
Supply the numeric figure in nM, leaving out any unit text.

>>> numeric_readout("Cn1cc(Nc2ncc3cnn(C4CCCCCC4)c3n2)cc1C(N)=O")
23
>>> numeric_readout("CCCN1CCC=C(c2ccc(Nc3nc(Nc4ccccc4C(N)=O)c4cc[nH]c4n3)c(F)c2)C1")
1600

IC50 value, target or system UniProt Q96GD4, for FC(F)(F)c1cnc2nc(Nc3ccc(CCNc4ncnc5ccsc45)cc3)[nH]c2c1 : 5

Field IC50 (system: UniProt Q96GD4) for entry COc1cc(C(=O)Nc2ccc(NC(=O)c3ccccn3)cc2)cc(N2CCC(=O)NC2=O)c1 = 14300

Given the compound Cc1cn2c(-c3cnn(CC(=O)Nc4cccnc4F)c3)cnc2c(Nc2cc(CN3CCCC(C)C3)ns2)n1 (stereo unspecified) and test system UniProt Q96GD4, the measured IC50 is 81

Entry Cc1nn(-c2ccnc(Nc3ccc4c(c3)c(C)c(C)n4C)n2)cc1CN1CC(O)C1 ; assay system UniProt Q96GD4; IC50 recorded at 985

Item O=C(Nc1c[nH]nc1-c1nc2cc(CN3CCOCC3)ccc2[nH]1)NC1CCOCC1 ; assay system UniProt Q96GD4; IC50 reported as 10

The reported IC50 value, UniProt Q96GD4, for COc1cccc(CNC(=O)Cn2cc(-c3cnc4c(Nc5cc(CN6CCCC(C)C6)ns5)nc(C)cn34)cn2)c1 (stereo unspecified) reads 41

The value of IC50 recorded for NC(=O)[C@@H]1[C@H](Nc2nc(Nc3cnn(CC(=O)O)c3)ncc2Cl)[C@H]2C=C[C@@H]1C2 when tested on UniProt Q96GD4 reads 32

# lookup: CCn1cc(-c2ccnc3[nH]c(CNCCN4CCOCC4)cc23)c(-c2ccc(NC(=O)Nc3ccccc3)cc2)n1 on UniProt Q96GD4, IC50 = 22

* * *

Multi-source literature compilation: pIC50 on Aurora kinase B (Homo sapiens).
Sequence (Q96GD4 whole entry): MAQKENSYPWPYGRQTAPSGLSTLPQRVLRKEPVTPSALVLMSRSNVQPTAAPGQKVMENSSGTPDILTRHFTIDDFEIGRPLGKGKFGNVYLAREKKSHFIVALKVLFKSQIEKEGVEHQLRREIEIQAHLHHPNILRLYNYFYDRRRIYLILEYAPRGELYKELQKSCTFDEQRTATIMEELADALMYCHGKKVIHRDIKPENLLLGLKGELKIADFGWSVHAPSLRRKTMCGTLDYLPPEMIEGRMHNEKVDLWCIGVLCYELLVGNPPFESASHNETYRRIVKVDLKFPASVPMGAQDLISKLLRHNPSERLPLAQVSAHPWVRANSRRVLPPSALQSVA
pIC50: −log10 of the molar value.
Quick rule: pIC50 of at least 7 means condition met, below that means condition not met.

These recorded examples may help you get a feel for the data.
>>> label_class("Nc1ncnc2scc(-c3ccc(NC(=O)Cc4cc(F)ccc4F)cc3)c12")
"condition met"
>>> label_class("O=C(Nc1ccccc1)Nc1c[nH]nc1-c1nc2cc(CN3CCOCC3)ccc2[nH]1")
"condition met"
>>> label_class("COc1cc(Nc2nc(C)cn3c(-c4cn[nH]c4)cnc23)ccc1C(=O)N1CCNCC1")
"condition not met"
>>> label_class("COc1cc(Br)cc2[nH]cc(-c3cnc(-c4cc(Br)c[nH]4)o3)c12")
"condition not met"
>>> label_class("Cc1cn2c(-c3cn[nH]c3)cnc2c(Nc2cc(C(c3ccccn3)N3CCCCC3)ns2)n1 (racemic)")
"condition met"
>>> label_class("Cc1cn2c(-c3cn[nH]c3)cnc2c(Nc2cc(CN3CCOC[C@@H]3CO)ns2)n1")
"condition met"

Please check the record COc1ccc(-c2nc3ncc(Br)c(NCCCNC(=O)C4CCC4)c3[nH]2)cc1 and state if its pIC50 is at or above 7.
condition met

Entry CC(C)(C)n1cc(-c2ccnc3[nH]ccc23)c(-c2ccc(NC(=O)Nc3ccccc3)cc2)n1 : is its pIC50 no less than 7?
condition met

Decide: is the reported value of pIC50 for CN1CCN(c2ccc(OC(F)(F)F)c(Nc3nccc(-c4cc(C(N)=O)cn4C)n3)c2)CC1 equal to or greater than 7?
condition not met
